Test system: HCC-2998 colon
EXPERIMENT: NCI tumour cell line growth inhibition, 48 h
Readings of TGI for the listed molecules
VALUE_KIND: TGI

>>> recorded_value("Cc1c(C(=O)O)n(-c2ccc(Cl)cc2)c2ncnc(N)c12")
"57.1 µM"
>>> recorded_value("COC(=O)C1=C(O)[C@H](C(=O)OC)C2(O)[C@@H](C(=O)OC)[C@H]1C[C@@H](c1ccc(OC(=O)n3ccnc3)cc1)[C@@H]2C(=O)OC")
"18 µM"
>>> recorded_value("OC1CC2CCCN(CCc3c1[nH]c1ccccc31)C2 (stereo not given)")
"> 100 µM"
>>> recorded_value("CCC12CCCN(Cc3ccccc3)C1c1c(n(C)c3ccccc13)[C@H](C(=O)OC)C2 (stereo not given in full)")
"> 239 µM"
>>> recorded_value("Cc1ccc(C2=C(c3ccc(C)cc3)C3(c4ccc(C)cc4)[C@@H](C#N)[C@H](C#N)C2(c2ccc(C)cc2)S3=O)cc1 (stereo not given in full)")
"> 100 µM"
>>> recorded_value("C[C@@H]1CCC[C@]2(C)O[C@H]2CC[C@@](C)(O)[C@@H]2CC3=C(CO)C(=O)O[C@H]3[C@H]1O2")
"> 50 µM"
>>> recorded_value("O=C(O)C1CCCN1C(=O)c1cc(Cl)ccn1 (stereo not given)")
"> 100 µM"
>>> recorded_value("N#Cc1c(N)nc(Nc2cccc3ccccc23)c(C#N)c1C#N")
"> 10 µM"
>>> recorded_value("CC(=O)Oc1ccc(O)c2c1CCCC2")
"> 100 µM"
>>> recorded_value("COc1ccc(/C(=N\\N=C(N)N)C(c2ccc(OC)cc2)C2OC(=O)c3ccccc32)cc1 (stereo not given)")
"> 100 µM"
>>> recorded_value("Nc1ccn(C2OC(CO)C3[O][Sn]([c]4ccccc4)([c]4ccccc4)[O]C32)c(=O)n1 (stereo not given)")
"17.9 µM"
>>> recorded_value("CC(C)NCC(O)c1cc(OCc2ccccc2)c(OCc2ccccc2)cc1NC(=O)CCC(=O)O (stereo not given)")
"6.47 µM"
>>> recorded_value("CCOC(=O)N/N=C(\\Cc1ccccc1)OCC")
"> 100 µM"
>>> recorded_value("O=C(N=C1N(c2ccccc2)C(=O)C(=O)N1c1ccccc1)c1ccccc1")
"23.3 µM"
>>> recorded_value("CC(=O)NC1C(OCc2ccccc2)OC(CO)C(O)C1OCC(=O)N1CCCC1C(=O)N[C@@H](CCC(=O)NCCNCCNc1c2ccccc2nc2cccc([N+](=O)[O-])c12)C(N)=O (stereo not given in full)")
"8.46 µM"
>>> recorded_value("c1ccc(NNN2NC(c3ccccc3)C2c2ccccc2)cc1 (stereo not given)")
"> 100 µM"
>>> recorded_value("CN=C(NN)NS(=O)(=O)c1cc(C)c(Cl)cc1S")
"> 100 µM"
>>> recorded_value("NC1CSc2ccccc2NC1=O (stereo not given)")
"> 100 µM"
>>> recorded_value("CC(C)(C)OC(=O)Nc1nnc(S(N)(=O)=O)s1")
"> 100 µM"
>>> recorded_value("O=C1c2ccccc2CCC1C(O)(C(F)(F)F)C(F)(F)F (stereo not given)")
"> 100 µM"

---

Listing of recorded TGI by entry.
Test system: A549 NSCLC
EXPERIMENT: NCI tumour cell line growth inhibition, 48 h
VALUE_KIND: TGI

>>> recorded_value("O=C(OCCN1CCCCCC1)C(c1ccsc1)C1CCCCC1 (stereo unspecified)")
"44.5 µM"
>>> recorded_value("COc1ccc(OC)c(N2C(=O)/C(=C\\c3ccccc3)SC2c2cc(OC)c(OC)c(OC)c2)c1 (stereo unspecified)")
"> 100 µM"
>>> recorded_value("CC(=O)Oc1ccc(O)c2c1CCCC2")
"> 100 µM"
>>> recorded_value("c1ccc([P+](CCN2Cc3ccccc3C2)(c2ccccc2)c2ccccc2)cc1")
"> 100 µM"
>>> recorded_value("c1ccc2cc(CN3CCC(C4CCN(Cc5ccc6ccccc6c5)CC4)CC3)ccc2c1")
"17.1 µM"
>>> recorded_value("O=C(CON1C(=O)c2ccccc2C1=O)c1ccccc1")
"> 100 µM"
